Data provenance is patent US4016159A.

Consider the following compounds; for each one, report its MIC.
System: Staphylococcus aureus SG 511
Test: Minimum inhibition concentration (MIC), Table 5
Assay type: cell-based
Conditions: Staphylococcus aureus, SG511, Germ: Staphylococcus aureus SG 511; read-out: Minimum inhibition concentration (MIC)

For orientation, consider the following solved cases.
compound="Cc1nnc(SCC2=C(C(=O)O)N3C(=O)[C@@H](NC(=O)Cn4cnnn4)[C@H]3SC2)s1 [Cephazolin-Na, reference compound]" observed="0.25 µg/mL"
compound="O=C(Cc1ccc(C2=NCCN2)cc1)NC1C(=O)N2C(C(=O)O)=C(CSc3nc(-c4ccccc4)cs3)CSC12 (stereo not shown) [Example 117]" observed="0.0625 to 0.078 µg/mL"
compound="Cc1nc(SCC2=C(C(=O)O)N3C(=O)C(NC(=O)Cc4ccc(C5=NCCCN5)cc4)C3SC2)sc1C (stereo not shown) [Example 106]" observed="0.0625 to 0.078 µg/mL"

Give MIC for CCCCCCNC(=N)c1ccc(OCC(=O)NC2C(=O)N3C(C(=O)O)=C(CSc4nnc(C)s4)CSC23)cc1 (stereo not shown) [Example 33]
0.0625 to 0.078 µg/mL

###

System: Staphylococcus aureus SG 511
Assay: Minimum inhibition concentration (MIC), Table 5
Assay type: cell-based
Details: Staphylococcus aureus, SG511, Germ: Staphylococcus aureus SG 511; read-out: Minimum inhibition concentration (MIC)
PROPERTY LABEL: MIC

For orientation, consider the following solved cases.
compound="O=C(COc1ccc(C2=NCCCN2)cc1)NC1C(=O)N2C(C(=O)O)=C(CSc3nnc(-c4ccccc4)s3)CSC12 (stereo not shown)" observed="0.0196 to 0.0391 µg/mL"
compound="Cc1nnc(SCC2=C(C(=O)O)N3C(=O)C(NC(=O)Cc4ccc(NC(=N)N)cc4)C3SC2)s1 (stereo not shown)" observed="0.0196 to 0.0391 µg/mL"
compound="N=C(N)c1ccc(CC(=O)NC2C(=O)N3C(C(=O)O)=C(CSc4nc5ccccc5s4)CSC23)cc1 (stereo not shown)" observed="0.0625 to 0.078 µg/mL"
compound="CCCc1csc(SCC2=C(C(=O)O)N3C(=O)C(NC(=O)Cc4ccc(C5=NCCN5)cc4)C3SC2)n1 (stereo not shown)" observed="0.0625 to 0.078 µg/mL"
compound="COc1cc(C(=N)N)ccc1OCC(=O)NC1C(=O)N2C(C(=O)O)=C(CSc3nncs3)CSC12 (stereo not shown)" observed="0.0625 to 0.078 µg/mL"
compound="N=C(N)c1ccc(OCC(=O)NC2C(=O)N3C(C(=O)O)=C(CSc4nnnn4-c4ccccc4)CSC23)cc1 (stereo not shown)" observed="0.0196 to 0.0391 µg/mL"

Give MIC for Cc1nsc(SCC2=C(C(=O)O)N3C(=O)C(NC(=O)Cc4ccc(C5=NCCCN5)cc4)C3SC2)n1 (stereo not shown)
0.0625 to 0.078 µg/mL

###

Consider the following molecules; for each one, report its MIC.
System: Staphylococcus aureus SG 511
Test: Minimum inhibition concentration (MIC), Table 5
Assay type: cell-based
Conditions: Staphylococcus aureus, SG511, Germ: Staphylococcus aureus SG 511; read-out: Minimum inhibition concentration (MIC)

molecule="O=C(Cc1ccc(C2=NCCCN2)cc1)NC1C(=O)N2C(C(=O)O)=C(CSc3ccc([N+](=O)[O-])cn3)CSC12 (stereo not drawn)" property_label=MIC observed="0.0625 to 0.078 µg/mL"
molecule="O=C(Cc1ccc(C2=NCCN2)cc1)NC1C(=O)N2C(C(=O)O)=C(CSc3nc4ccccc4s3)CSC12 (stereo not drawn)" property_label=MIC observed="0.0625 to 0.078 µg/mL"

Your task in this section: give MIC for each listed record.
1. O=C(Cc1ccc(C2=NCCCN2)cc1)NC1C(=O)N2C(C(=O)O)=C(CSc3nc4ccccc4o3)CSC12 (stereo not drawn)
2. CC(C)c1csc(SCC2=C(C(=O)O)N3C(=O)C(NC(=O)Cc4ccc(C5=NCCN5)cc4)C3SC2)n1 (stereo not drawn)
3. N=C(N)c1ccc(CC(=O)NC2C(=O)N3C(C(=O)O)=C(CSc4nnc(-c5ccccc5)o4)CSC23)cc1 (stereo not drawn)

1. 0.0625 to 0.078 µg/mL
2. 0.0625 to 0.078 µg/mL
3. 0.0196 to 0.0391 µg/mL
